# SYSTEM UNDER TEST: RAR γ (Homo sapiens, UniProt P13631)
# Sequence (P13631 1-454): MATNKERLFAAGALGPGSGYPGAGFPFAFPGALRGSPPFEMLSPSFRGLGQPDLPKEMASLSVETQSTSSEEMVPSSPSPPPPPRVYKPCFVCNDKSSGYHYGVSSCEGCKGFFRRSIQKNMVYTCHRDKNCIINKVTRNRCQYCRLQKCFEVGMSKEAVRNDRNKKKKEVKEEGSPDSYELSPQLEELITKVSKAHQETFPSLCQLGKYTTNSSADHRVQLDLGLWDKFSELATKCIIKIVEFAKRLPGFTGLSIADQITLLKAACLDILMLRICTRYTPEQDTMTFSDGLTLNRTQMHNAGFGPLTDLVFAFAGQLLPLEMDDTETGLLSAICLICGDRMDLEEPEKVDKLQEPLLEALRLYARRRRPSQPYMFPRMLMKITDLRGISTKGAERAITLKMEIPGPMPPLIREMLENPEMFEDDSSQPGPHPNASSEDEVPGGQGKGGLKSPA
# TEST NAME: RAR γ Kd
# Format: binding
# TEST SETTINGS: last item of cell EC50/(EFFICACY)/Kd
pKd: −log10 of the molar value.
Listing of recorded pKd by entry.
MEASURED ENDPOINT: pKd

1. Cc1ccc(C(C)(C)C)cc1C#Cc1ccc(/C=C/C(=O)O)cc1 : 5.68
2. COc1cc(C#Cc2ccc(C(C)C(=O)O)cc2)cc2c1C(N(C)C1CC1)CCC2(C)C (stereo not shown) : < 5.00
3. CC(C(=O)O)c1ccc(C#Cc2cc(O)c3c(c2)C(C)(C)CC(C)(C)O3)cc1 (stereo not shown) : < 5.00
4. CCOC(=O)C1=C(C)CC(C)(C)c2cc(C#Cc3ccc(CC(=O)O)cc3)ccc21 : < 5.00

Measured values drawn from patent US7468391B2 for this set.
